study-target: KPC-2^V240G (Klebsiella pneumoniae, UniProt Q9F663, V239G)
test-name: Inhibition kinetics (CENTA hydrolysis, jump dilution), KPC-2 V240G
condition-set: estimated from ratio koff / k2/K
property: Kd (nM)
All answers are understood in nM, so give the number only.

Lab book: Kd of NCCN[C@H]1CC[C@H](CC(=O)N[C@H]2Cc3cccc(C(=O)O)c3OB2O)CC1 noted as 55

So for CCC(=O)N[C@H]1Cc2cccc(C(=O)O)c2OB1O , the logged Kd turned out to be 12

----------
study-target: KPC-2^D179Y (Klebsiella pneumoniae, UniProt Q9F663, D178Y)
test-name: biochemical
condition-set: ND = no significant inhibition at the highest concentration tested, read-out: Apparent affinity Ki^app
property: Ki (µM)
Report only the number, with the unit µM understood.

Just so you know, measured Ki for CO/N=C(\C(=O)N[C@@H]1C(=O)N2C(C(=O)[O-])=C(C[N+]3(C)CCCC3)CS[C@H]12)c1csc(N)n1 [FEP, cefepime] came out at 4.6

----------
Provide the recorded MIC for the entries that follow.
Test system: engineered E. coli strain expressing KPC-2^V240G
test-name: microbe, parasite or virus in culture
Format: cell-based
condition-set: Escherichia coli, BLIs at fixed 4 μg/mL
Provide only the numeric value, understood in µg/mL.

Query C[C@@H](O)[C@H]1C(=O)N2C(C(=O)O)=C(S[C@@H]3CN[C@H](C(=O)N(C)C)C3)[C@H](C)[C@H]12 yields MIC of 8

Briefly, MIC measured for Nc1nc(/C(=C/CC(=O)O)C(=O)N[C@@H]2C(=O)N3C(C(=O)O)=CCS[C@H]23)cs1 : 64

Input CO/N=C(\C(=O)N[C@@H]1C(=O)N2C(C(=O)[O-])=C(C[N+]3(C)CCCC3)CS[C@H]12)c1csc(N)n1 [FEP, cefepime] . Output MIC: 128

----------
The compounds below have reported Ki for KPC-2 WT (Klebsiella pneumoniae, UniProt Q9F663).
Hi! Could you send only the number? It should be in µM, unit omitted.

Ki reading for Nc1nc(/C(=C/CC(=O)O)C(=O)N[C@@H]2C(=O)N3C(C(=O)O)=CCS[C@H]23)cs1 : 159

The recorded Ki for CO/N=C(\C(=O)N[C@@H]1C(=O)N2C(C(=O)[O-])=C(C[N+]3(C)CCCC3)CS[C@H]12)c1csc(N)n1 [FEP, cefepime] is 32.9

----------
study-target: KPC-2^D179Y/T243M (Klebsiella pneumoniae, UniProt Q9F663, D178Y/T242M)
test-name: Inhibition kinetics (CENTA hydrolysis, jump dilution), KPC-2 D179Y/T243M
condition-set: KPC-2 D179Y/T243M; estimated from ratio koff / k2/K
Protocol: Measurements to determine kinetic parameters for hydrolysis, and kinetic parameters for inhibition were performed at ambient temperature in PBS (pH 7.4) containing 0.1 mg/mL bovine serum albumin, using a PowerWaveXS plate reader (BioTek). Second-order rate constants (k2/K) denoting the inactivation efficiency of BLIs were determined by continuously measuring CENTA (100 µM) hydrolysis ([28]) in the presence of various concentrations of BLI. […] Koff was determined by the jump dilution method ([24]). […]
property: pKd
Note on units: pKd is unitless, being -log10 of a concentration expressed in mol/L.

Documented pKd of CCC(=O)N[C@H]1Cc2cccc(C(=O)O)c2OB1O : 5.82

Value of measured pKd for the entry NCCN[C@H]1CC[C@H](CC(=O)N[C@H]2Cc3cccc(C(=O)O)c3OB2O)CC1 : 5.47
